# study.target: glutathione S-transferase (Schistosoma japonicum GST tag binding GSH beads)
# test.details: GST–glutathione bead interaction interference profiling – biochemical, multiplex beads, flow cytometry, profiling panel (AID 1769);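 also: target is a GST and green fluorescent protein fusion captured on glutathione beads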
# measurement.parameters: flow cytometry fluorescence
Some compounds, each annotated with its measured EC50.

These solved cases illustrate the format of a correct answer.
O=[N+]([O-])c1ccc(/C=C/C2=NN(c3ccccc3)C(c3ccco3)C2)cc1 (stereo not drawn)	1340 nM
C=CCNc1nc(=S)[nH]c2cc(OC)c(OC)cc12	13300 nM

Continue with the next compound.
Enquiry: Give its EC50 value. Item: `COc1ccc(-c2csc(NC(=S)NC(=O)c3cccs3)n2)cc1OC`
Return: 1330 nM
